# Test system: CCRF-CEM
# EXPERIMENT NOTES: NCI60 one-dose screen (10 μM), Leukemia
# Assay type: cell-based
# APPLIED CONDITIONS: Homo sapiens, 10 μM, Leukemia, read-out: Growth percent rate
Measured activity at 10 µM of individual entries

| COMPOUND | TARGET OF ASSAY | SCALE UNIT | activity at 10 µM |
| --- | --- | --- | --- |
| CCC12C=CCN3CCC4(c5cc(NC(=O)CN6CCN(c7ccc(C(F)(F)F)cc7)CC6)c(OC)cc5N(C)C4C(O)(C(=O)OC)C1OC(C)=O)C32 (stereo not drawn) | CCRF-CEM | % | -7.07 |
| CCC12C=CCN3CCC4(c5cc(NC(=O)CN6CCN(C(c7ccc(F)cc7)c7ccc(F)cc7)CC6)c(OC)cc5N(C)C4C(O)(C(=O)OC)C1OC(C)=O)C32 (stereo not drawn) | CCRF-CEM | % | -18.9 |
| CCC12C=CCN3CCC4(c5cc(NC(=O)CCl)c(OC)cc5N(C)C4C(O)(C(=O)OC)C1OC(C)=O)C32 (stereo not drawn) | CCRF-CEM | % | 12.6 |
